methodDescription: NCI Yeast Anticancer Drug Screen. Data for the wt1 strain (AID 149);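 note: 0% = growth of vehicle-treated wt1 cultures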
testConditions: S. cerevisiae wt1 strain (SPY 50644) growth inhibition; at 1.2 µM; stronger effect = higher value
Compounds without any hit were thinned out: in the full panel of roughly 79,000, 15% have a hit. Residues, ends and D or L forms follow the SMILES beside them. *: point of attachment. Fmoc = O=C(OCC1c2ccccc2-c2ccccc21)*; Boc = CC(C)(C)OC(=O)*
Field: growth inhibition. Provide a value for each of the compounds that follow.
Provide only the numeric value, understood in %.

Note down growth inhibition recorded for O=S(=O)(c1ccccc1)N1CN2CN(C1)CN(S(=O)(=O)c1ccccc1)C2
-3

Note down growth inhibition recorded for CC(C)OP(=O)(OC(C)C)/C(Cl)=N/Nc1ccc([N+](=O)[O-])cc1
-10

Note down growth inhibition recorded for Cc1cc(Cl)ccc1NC(=O)/C(Cl)=C(/Cl)C(=O)O
0

Note down growth inhibition recorded for C=COC(=O)N[C@H]1CCc2cc(OC)c(OC)c(OC)c2-c2ccc(SC)c(=O)cc21
-2

Note down growth inhibition recorded for CC(C)(C)OC(=O)NCCCCC(NC(=O)C(Cc1c[nH]c2ccccc12)NC(=O)OCC1c2ccccc2-c2ccccc21)C(=O)O (stereo not given) (Fmoc-Trp-Lys(Boc)-OH; configuration not given here)
-2

Note down growth inhibition recorded for Nc1ccc2c(c1)C(=O)c1c(F)cccc1-2
-6

Note down growth inhibition recorded for Cc1cccc2c1C1c3c(C)cccc3C(CC(=O)O)CC1CC2 (stereo not given)
2

Note down growth inhibition recorded for COc1ccc2cc(C(C)C(=O)N3CCOC3=O)ccc2c1 (stereo not given)
-34

Note down growth inhibition recorded for O=C1C=C(NCCc2cc(Br)c(O)c(Br)c2)C(=O)c2ncccc21
17

Note down growth inhibition recorded for CCOP(=O)(OCC)/C(C#N)=C\c1cccc2ccccc12
2
